Data credit: patent US5928933A

test: Enzyme screens for resolution of racemic N-(methoxycarbonyl)-4,4-dimethoxy-D,L-proline methyl ester (Example 8, comparative); format: biochemical; conditions: 0.100M racemate; pH 7.0; 6 h or 17 h; 5.0 to 30 mg/mL enzyme; 25° C.
metric: % ee (enantiomeric excess of the D-isomer) (%)
One number for each entry, in %.

% ee (enantiomeric excess of the D-isomer) for protease, type XXVII: commercial enzyme preparation, (Nagarase) (protein, UniProt P00782 108-382, looked up) Subtilisin BPN': AQSVPYGVSQIKAPALHSQGYTGSNVKVAVIDSGIDSSHPDLKVAGGASMVPSETNPFQDNNSHGTHVAGTVAALNNSIGVLGVAPSASLYAVKVLGADGSGQYSWIINGIEWAIANNMDVINMSLGGPSGSAALKAAVDKAVASGVVVVAAAGNEGTSGSSSTVGYPGKYPSVIAVGAVDSSNQRASFSSVGPELDVMAPGVSIQSTLPGNKYGAYNGTSMASPHVAGAAALILSKHPNWTNTQVRSSLENTTTKLGDSFYYGKGLINVQAAAQ is 30
